Source of measurements: patent US20100216823A1

subject-of-test: PDE7B (Homo sapiens, UniProt Q9NP56)
Construct: cell lysate containing full length PDE7A, PDE7B and PDE1C enzyme; made in house; host or cells: cell lysate
Sequence (Q9NP56 whole entry): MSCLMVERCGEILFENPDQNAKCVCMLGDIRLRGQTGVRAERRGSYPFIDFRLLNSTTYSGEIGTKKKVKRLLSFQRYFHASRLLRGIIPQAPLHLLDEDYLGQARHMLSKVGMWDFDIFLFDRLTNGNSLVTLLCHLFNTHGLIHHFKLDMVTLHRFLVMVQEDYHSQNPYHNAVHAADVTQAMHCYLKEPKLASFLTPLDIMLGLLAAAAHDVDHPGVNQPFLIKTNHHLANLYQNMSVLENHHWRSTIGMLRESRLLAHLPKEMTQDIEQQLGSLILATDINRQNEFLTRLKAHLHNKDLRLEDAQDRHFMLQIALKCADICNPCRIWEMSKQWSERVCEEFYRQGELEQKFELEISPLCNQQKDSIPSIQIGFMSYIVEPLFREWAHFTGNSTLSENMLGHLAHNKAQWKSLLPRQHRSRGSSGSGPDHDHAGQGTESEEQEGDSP
protocol-description: PDE7B [3H]-cAMP scintillation proximity assay (SPA) enzyme inhibition
Format: biochemical
condition-info: ratio PDE1C Ki / PDE7B Ki
1C/7B selectivity listing for selected compounds.
In your answer, state the number alone without any accompanying words.

compound	1C/7B selectivity
CS(=O)(=O)NC(=O)c1cccc(F)c1Oc1ccc(Cl)c2c1C1(CCCCC1)NC(=O)N2 [Example 20]	94
O=C1Nc2c(Cl)ccc(Oc3ccc(F)cc3-c3nnn[nH]3)c2C2(CCCC2)N1 [Example 13]	119
O=C1Nc2c(Cl)ccc(Oc3c(F)cccc3C(=O)O)c2C2(CCCC2)N1 [Example 7]	107

Short answer for O=C(O)COc1ccc(Oc2ccc(Cl)c3c2C2(CCCCC2)NC(=O)N3)cc1 [Example 24] : 1C/7B selectivity was 14

Entry O=C1Nc2c(Cl)ccc(-c3ccc(C(=O)O)c(F)c3)c2C2(CCCCC2)N1 [Example 3] ; 1C/7B selectivity = 24

Item: O=C1Nc2c(Cl)cc(-c3ccc(C(=O)O)cc3)cc2C2(CCCCC2)N1 [Compound B, reference compound] | 1C/7B selectivity: 0.04

---

subject-of-test: PDE7A (Homo sapiens, UniProt Q13946)
Construct: cell lysate containing full length PDE7A, PDE7B and PDE1C enzyme
Sequence (Q13946 whole entry): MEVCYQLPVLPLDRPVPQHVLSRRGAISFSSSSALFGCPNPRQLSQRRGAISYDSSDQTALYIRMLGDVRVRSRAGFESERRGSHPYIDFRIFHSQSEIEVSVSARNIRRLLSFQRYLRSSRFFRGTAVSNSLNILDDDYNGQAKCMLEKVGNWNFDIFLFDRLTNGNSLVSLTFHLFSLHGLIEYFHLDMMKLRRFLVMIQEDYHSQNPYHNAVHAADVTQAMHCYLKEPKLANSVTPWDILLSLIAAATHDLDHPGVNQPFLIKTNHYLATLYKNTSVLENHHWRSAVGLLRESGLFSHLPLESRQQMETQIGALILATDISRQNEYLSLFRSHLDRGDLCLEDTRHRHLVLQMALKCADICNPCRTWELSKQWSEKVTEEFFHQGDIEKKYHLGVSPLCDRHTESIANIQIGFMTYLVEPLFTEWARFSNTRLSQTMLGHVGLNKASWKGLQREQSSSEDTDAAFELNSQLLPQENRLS
protocol-description: PDE7A [3H]-cAMP scintillation proximity assay (SPA) enzyme inhibition
condition-info: full length PDE7A in cell lysate; ~25 nM cAMP; Ki from IC50 by Cheng-Prussof equation
Reported Ki values are given for each entry in this list.
Express your answer in nM, writing the number without its unit.

compound	subject-of-test	unit-abbrev	Ki
O=C1Nc2c(Cl)ccc(Oc3c(F)cccc3-c3n[nH]c(=O)[nH]3)c2C2(CCCCC2)N1	PDE7A (Homo sapiens, UniProt Q13946)	nM	0.94
O=C1Nc2c(Cl)ccc(Oc3c(F)cccc3NS(=O)(=O)C(F)(F)F)c2C2(CCCCC2)N1	PDE7A (Homo sapiens, UniProt Q13946)	nM	0.2
O=C1Nc2c(Cl)ccc(-c3ccc(F)c(-c4nn[nH]n4)c3)c2C2(CCCCC2)N1	PDE7A (Homo sapiens, UniProt Q13946)	nM	7.5

Reported Ki of O=C1Nc2c(Cl)cc(-c3ccc(C(=O)O)cc3)cc2C2(CCCCC2)N1 [Compound B, reference compound] : 1.5

---

subject-of-test: PDE7B (Homo sapiens, UniProt Q9NP56)
Construct: cell lysate containing full length PDE7A, PDE7B and PDE1C enzyme; made in house; host or cells: cell lysate
protocol-description: PDE7B [3H]-cAMP scintillation proximity assay (SPA) enzyme inhibition
Type: biochemical
condition-info: ratio PDE1C Ki / PDE7B Ki
Excerpt: The ability of the compounds of formula (I) to inhibit PDE7 and PDE1 may be measured using the following assay protocol. PDE7A, PDE7B and PDE1C enzymes catalyse the hydrolysis of 3′,5′-cyclic adenosine monophosphate (cAMP) to the 5′ adenosine monophosphate, 5′AMP. […] The yttrium silicate beads preferentially bind linear nucleotides, thus the product of the enzyme reaction, [^3H]-5′AMP binds to the bead to produce a light signal, which is detected by a scintillation counter. […]
# 1C/7B selectivity listing for each entry below

molecule	subject-of-test	1C/7B selectivity
O=C1Nc2c(Cl)ccc(Oc3c(F)cccc3-c3noc(=O)[nH]3)c2C2(CCCCC2)N1 [Example 18]	PDE7B (Homo sapiens, UniProt Q9NP56)	59

For reference, reported 1C/7B selectivity for O=C1Nc2c(Cl)ccc(Oc3c(Cl)cccc3-c3nn[nH]n3)c2C2(CCCC2)N1 [Example 15] stands at 164

Lab book: 1C/7B selectivity of O=C1Nc2c(Cl)ccc(Oc3c(Cl)cccc3C(=O)O)c2C2(CCCCC2)N1 [Example 8] noted as 192

According to the records, this molecule O=C1Nc2c(Cl)ccc(Oc3c(F)cccc3-c3nn[nH]n3)c2C2(CCCC2)N1 [Example 14] displays 1C/7B selectivity of 165

Quick note, 1C/7B selectivity for O=C1Nc2c(Cl)ccc(-c3ccc(F)c(-c4nn[nH]n4)c3)c2C2(CCCCC2)N1 [Example 4] landed at 35

Kindly note the recorded 1C/7B selectivity for O=C1Nc2c(Cl)ccc(Oc3c(F)cccc3NS(=O)(=O)C(F)(F)F)c2C2(CCCCC2)N1 [Example 21] , which is 25

// sample O=C1Nc2c(Cl)ccc(Oc3ccccc3-c3nnn[nH]3)c2C2(CCCCC2)N1 [Example 17] , its 1C/7B selectivity was 48

# molecule O=C1Nc2c(Cl)ccc(OCc3ccc(C(=O)O)o3)c2C2(CCCCC2)N1 [Compound C, reference compound] ; its 1C/7B selectivity = 9.2

Lookup result for O=C1Nc2c(Cl)ccc(Oc3c(F)cccc3-c3nn[nH]n3)c2C2(CCCCC2)N1 [Example 10] ; measured 1C/7B selectivity: 186
